assay: Salt screen: XRPD of isolated solids after drying at 40° C. and at 40° C./75% RH; assay type: physicochemical; details: after 40° C. drying, dried at 40° C./75% RH for about 24 h; label = form after 40° C. drying
READOUT: XRPD after drying at 40° C./75% RH

[[record]]
compound = "CC(=O)N(C)C1(c2ccccc2)CCN(CCCC2(c3ccc(Cl)c(Cl)c3)CCCN(C(=O)c3ccccc3)C2)CC1.O=C(O)C(O)C(O)C(=O)O [osanetant L-tartaric acid Form 2]"
readout = "XRPD after drying at 40° C./75% RH"
obs_value = "crystallinity was lost"

[[record]]
compound = "CC(=O)N(C)C1(c2ccccc2)CCN(CCC[C@]2(c3ccc(Cl)c(Cl)c3)CCCN(C(=O)c3ccccc3)C2)CC1.O=C(O)/C=C/C(=O)O [osanetant fumaric acid Form 1]"
readout = "XRPD after drying at 40° C./75% RH"
obs_value = "crystallinity was lost"

